Origin of values: patent US20120114652A1

target or test system: T1, mouse PAI-1 (mouse, UniProt P22777 24-401)
T1 sequence: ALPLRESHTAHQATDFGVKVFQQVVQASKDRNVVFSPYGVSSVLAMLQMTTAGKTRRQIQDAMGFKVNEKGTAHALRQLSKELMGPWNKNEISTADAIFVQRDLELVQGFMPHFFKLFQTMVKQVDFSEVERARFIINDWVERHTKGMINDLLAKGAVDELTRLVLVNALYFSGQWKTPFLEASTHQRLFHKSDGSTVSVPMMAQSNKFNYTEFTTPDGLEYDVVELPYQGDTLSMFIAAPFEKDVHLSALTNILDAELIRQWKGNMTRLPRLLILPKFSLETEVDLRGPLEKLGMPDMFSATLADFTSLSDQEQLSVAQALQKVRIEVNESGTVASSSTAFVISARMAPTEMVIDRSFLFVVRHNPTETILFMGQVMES
method description: cell-based or functional assay
Under this convention, yes denotes IC50 HT-1080 Exo PAI-1 strictly below 20 nM and no denotes IC50 HT-1080 Exo PAI-1 at or above 20 nM.

Here are 4 binders together with their reported answers.
{"binder": "Antibody 14, scFv (scFv, V domains shown) VH: QVQLQQSGAEVKKPGSSVKVSCKASGGTFSSYAISWVRQAPGQGLEWMGGIIPTFGTANYAQKFQGRVTITADESTSTAYMELSGLRSEDTAVYYCAREKRQWLEGHFDYWGRGTLVTVSS VL: DIQMTQSPSFLSASIGDRVTITCRASEGIYHNLAWYQQKPGKAPKLLIYRASSLASGAPSRFSGSGSGTDFTFTISSLQPDDFATYYCQQYSNYPLTFGGGTKLEIK", "group": "no"}
{"binder": "Antibody 15, scFv (scFv, V domains shown) VH: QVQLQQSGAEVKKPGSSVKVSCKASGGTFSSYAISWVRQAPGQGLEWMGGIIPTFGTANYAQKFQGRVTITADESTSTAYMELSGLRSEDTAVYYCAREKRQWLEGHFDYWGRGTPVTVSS VL: DIQMAQSPSFLSASIGDRVTITCRASEGIYHNLAWYQQKPGKAPKLLIYRASSLASGAPSRFSGSGSGTDFTLTISSLQPDDFATYYCQQYSNYPLTFGGGTKLEIR", "group": "no"}
{"binder": "Antibody 02, IgG1, not germlined (antibody, V domains shown) VH: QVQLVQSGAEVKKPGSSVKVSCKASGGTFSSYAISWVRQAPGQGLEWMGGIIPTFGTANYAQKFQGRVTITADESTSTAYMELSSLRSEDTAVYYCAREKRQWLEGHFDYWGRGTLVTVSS VL: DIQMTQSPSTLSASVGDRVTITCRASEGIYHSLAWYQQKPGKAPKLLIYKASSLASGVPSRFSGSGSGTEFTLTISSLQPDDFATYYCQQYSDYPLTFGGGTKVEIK", "group": "yes"}
{"binder": "Antibody 20, scFv (scFv, V domains shown) VH: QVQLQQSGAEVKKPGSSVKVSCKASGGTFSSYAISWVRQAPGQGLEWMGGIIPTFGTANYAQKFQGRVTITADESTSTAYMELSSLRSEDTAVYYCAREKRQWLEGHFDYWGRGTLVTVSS VL: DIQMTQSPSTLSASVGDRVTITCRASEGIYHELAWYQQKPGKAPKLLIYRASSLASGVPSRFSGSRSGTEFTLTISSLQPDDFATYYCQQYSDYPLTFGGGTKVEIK", "group": "yes"}

Now take the following binder into account.
Strictly below 20 nM: is that where IC50 HT-1080 Exo PAI-1 of Antibody 09, scFv (scFv, V domains shown) VH: QVQLQQSGAEVKKPGSSVKVSCKASGGTFSSYAISWVRQAPGQGLEWMGGIIPAFDTANYAQKFQGRVTITADESTSTAYMELSGLRSEDTAVYYCAREKRQWLEGHFDYWGRGTPVTVSS VL: DIQMTQSPSFLSASIGDRVTITCQASEGIYHNLAWYQQKPGKAPKLLIYRASSLASGAPSRFSGSGSGTDFTLTISSLQPDDFATYYCQQYSNYPLTFGGGTKLEIK sits?
no
